Target: recombinant human FLAP protein (Homo sapiens, UniProt P20292)
Construct: made in house; host or cells: Sf9 insect cells (100,000×g membrane pellet used)
Sequence (P20292 1-161): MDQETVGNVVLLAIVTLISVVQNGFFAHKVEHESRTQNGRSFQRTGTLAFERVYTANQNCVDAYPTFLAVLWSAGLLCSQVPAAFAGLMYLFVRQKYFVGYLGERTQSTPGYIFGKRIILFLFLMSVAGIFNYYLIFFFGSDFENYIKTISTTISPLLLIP
Assay: FLAP binding assay (SPA, displacement of [125I]L-691,831)
Method: Assessment of Biological Properties 1. Binding Assay Compounds are assessed for the ability to bind to FLAP in a binding assay that measures compound-specific displacement of an iodinated (^125I) FLAP inhibitor via a Scintillation Proximity Assay format (adapted from S. Charleson et al., Mol. Pharmacol., 1992, 41, 873-879). Cell pellets produced from sf9 insect cells expressing recombinant human FLAP protein are resuspended in buffer A [15 mM Tris-HCl (pH 7.5), 2 mM MgCl2, 0.3 mM EDTA, 1 mM PMSF]. […]
pIC50: −log10 of the molar value.

{"compound": "CC(C)[C@@](C)(c1ccc(-c2cnc(N)nc2)cc1)c1noc(-c2cnn(C)c2)n1 (single isomer, unassigned)", "system": "recombinant human FLAP protein (Homo sapiens, UniProt P20292)", "pIC50": 8.11}
{"compound": "CC(C)[C@](C)(c1ccc(-c2cnc(N)nc2)cc1)c1noc(-c2cnn(C)c2)n1 (single isomer, unassigned)", "system": "recombinant human FLAP protein (Homo sapiens, UniProt P20292)", "pIC50": 8.80}
